Listing of entries alongside the reported growth.
System: SNB-75 CNS
Assay: NCI-60 one-dose screen, 48 h (100 = growth as untreated, 0 = no growth, -100 = all killed)
Settings: 10 µM unless noted
About 83,000 compounds went through this panel and 20% of them were active in at least one assay; those are over-represented in the sample as a whole. Activity calls are given as the source filed them. How the source made its calls: active means growth percent below 10; inactive means the rest.

Worked examples follow.
[[record]]
compound = "O=C(Nc1cccc(Cl)c1)c1cc([N+](=O)[O-])ccc1O"
result = "67.8% (inactive)"

[[record]]
compound = "COc1ccc(C2NC3=C(CCCC3)C(C#N)(C#N)C2(C#N)C#N)cc1 (configuration not stated)"
result = "88.6% (inactive)"

[[record]]
compound = "NC(CC(N)C(=O)O)C(=O)O (configuration not stated)"
result = "88.4% (inactive)"


# compound CC(=O)Nc1nc(C(=O)N2N=C(C)/C(=C/c3ccccc3)C2=O)cs1 ; its growth = 95.5% (inactive)

Documented growth of CCNc1nc(N2CC(=O)Nc3cc(OC)ccc32)c2ccccc2n1 : 24.7% (inactive)

Given item Cn1cc(C=O)c2ccccc21 , the value recorded as its growth is 80% (inactive)

Memo: O=C1Nc2cc(Cl)ccc2Oc2cc(Oc3ccccc3)ccc21 , reported growth: 50.9% (inactive)

Looking up CC1Cc2c(N(C)C)ncnc2N(C)c2ccc(O)cc21 (configuration not stated) , I see its growth listed as 72.9% (inactive)

Data point: Cc1ccc2c(c1)C(C)Cc1c(N(C)C)ncnc1N2C (configuration not stated) ; growth = 14% (inactive)

Sure, the documented growth for COc1cccc(-c2nc3sccn3c2-c2ccnc(NCCCNS(=O)(=O)c3ccccc3)n2)c1 is 92.6% (inactive)

The value of growth measured for the compound C=C1C(=O)O[C@H]2[C@H]1CC/C(COC(=O)NCCc1ccc(OC)cc1)=C\CC[C@@]1(C)O[C@@H]21 turned out to be 79.4% (inactive)

Just so you know, measured growth for COC(=O)C(CC(=O)c1ccc(-c2ccccc2)cc1)c1ccccc1 (configuration not stated) came out at 72.5% (inactive)

# growth (compound: Cc1nc(Nc2cccnc2)sc1C(=O)/C=C/c1ccc(F)cc1 ) is 2.4% (active)

Quick note, growth for O=[N+]([O-])c1cccc(-c2cc(-c3cc(Br)ccc3O)[nH]n2)c1 landed at 38.8% (inactive)

Documented growth of O=[N+]([O-])c1ccc(S(=O)(=O)N2CCN(c3ccnc4cc(Cl)ccc34)CC2)c([N+](=O)[O-])c1 : 73.8% (inactive)

Lookup result for COC(=O)CC/C(C)=N\Nc1ccc([N+](=O)[O-])cc1 ; measured growth: 91.5% (inactive)

growth reading for O=C(O)c1ccc(-n2c(=O)c3ccccc3c3ccccc3c2=O)cc1 : 92.9% (inactive)

Looking up Nc1cc2c(cc1N)-c1cc(N)c(N)cc1C2 , I found its growth recorded as 79.9% (inactive)

The value of growth measured for the compound Cc1ccc2c(c1)C(C)Cc1c(ncnc1-n1cnc3ccccc31)N2C (configuration not stated) turned out to be -10.3% (active)

Value of measured growth for the entry COc1cc(NCCN=C(N)NC(N)=NC(C)C)c2ncccc2c1 : 63.8% (inactive)

For record O=C(OCCCCOC(=O)n1cnc2ccccc21)n1cnc2ccccc21 the listed growth is 96% (inactive)

Memo: CCN(CC)S(=O)(=O)c1ccc2[nH]c(=O)cc(C(=O)Nc3ccc(OC)cc3OC)c2c1 , reported growth: 110% (inactive)

====

System: SR leukemia
Assay: NCI-60 one-dose screen, 48 h
Details: 10 µM unless noted
The panel holds about 83,000 compounds, 20% with a hit somewhere; the sample as a whole holds those more often. Activity calls are given as the source filed them. The calls were made as follows: active = growth percent below 10; inactive = the rest.
Your answer must be one of the following: active, inactive

Below are worked cases with known answers.
[[record]]
compound = "COC(=O)C(CC(=O)c1ccc(-c2ccccc2)cc1)c1ccccc1 (stereo not given)"
assay_system = "SR leukemia"
label = "inactive"

[[record]]
compound = "O=C(O)c1ccc(-n2cc(CNc3ccc(C(F)(F)F)cc3)c(-c3ccccc3)n2)cc1"
assay_system = "SR leukemia"
label = "inactive"

[[record]]
compound = "Cc1sc2nc(CSc3nnc(-c4ccco4)o3)[nH]c(=O)c2c1C"
assay_system = "SR leukemia"
label = "inactive"

[[record]]
compound = "COc1ccc(C2CC(c3cccs3)=NN2c2ccc(S(=O)(=O)NC(=O)NCc3cccc(OC)c3)cc2)cc1 (stereo not given)"
assay_system = "SR leukemia"
label = "inactive"

[[record]]
compound = "CC(CCc1ccccc1)NC(=O)c1n[nH]c(=O)c2ccccc12 (stereo not given)"
assay_system = "SR leukemia"
label = "inactive"

[[record]]
compound = "COc1cc(NS(C)(=O)=O)ccc1Nc1c2ccc([N+](=O)[O-])cc2nc2c(C)cccc12"
assay_system = "SR leukemia"
label = "inactive"

[[record]]
compound = "CCCCCCCCCCCCCCCCC(Br)C(=O)O (stereo not given)"
assay_system = "SR leukemia"
label = "inactive"

[[record]]
compound = "C=CCN=C1NC(=O)/C(=C/c2cc(C(C)(C)C)c(O)c(C(C)(C)C)c2)S1"
assay_system = "SR leukemia"
label = "inactive"

[[record]]
compound = "CCNc1nc(N2CC(=O)Nc3cc(OC)ccc32)c2ccccc2n1"
assay_system = "SR leukemia"
label = "inactive"

[[record]]
compound = "Cc1cccc(NC(=O)c2sc3nc4c(cc3c2N)CCC4)c1C"
assay_system = "SR leukemia"
label = "inactive"


query: Would you mind telling me which call this test gave Cc1nc(Nc2cccnc2)sc1C(=O)/C=C/c1ccc(Cl)cc1 ?
result: active

query: What is the recorded call for this compound in the test? COc1cc(C(=O)OCCCCCCCCCCC[P+](c2ccccc2)(c2ccccc2)c2ccccc2)ccc1O
result: active

query: Dear all, I need the recorded test outcome for CC(=O)Nc1ccc(S(=O)(=O)NC(CCC(=O)Nc2ccc(Cl)cc2)C(=O)O)cc1 (stereo not given) , thank you.
result: inactive

query: So what was the verdict on CCN1C(=S)N(CC)C2Nn3c(s/c(=C4\C(=O)N(C)c5ccccc54)c3=O)=NC21 (stereo not given) in this test?
result: inactive

====

Test system: RPMI-8226 leukemia
Assay: NCI-60 one-dose screen, 48 h
Settings: 10 µM unless noted
The panel holds about 83,000 compounds, 20% with a hit somewhere; the sample as a whole holds those more often. The source made the active and inactive calls. How the source made its calls: active means growth percent below 10; inactive means the rest.
Log the outcome using a class from 1 = active, -1 = inactive

[[record]]
compound = "COc1ccc(C2CC(=O)Nc3c2c(C)nn3-c2nc3ccccc3[nH]2)cc1OC (centres undefined)"
label = -1

[[record]]
compound = "CC(=O)N1Cc2ccccc2C(C)Cc2cc(Cl)ccc21 (centres undefined)"
label = -1

[[record]]
compound = "O=C1N=C(c2c(-c3[nH]c(=O)c4ccc(Br)cc4c3O)c(O)c3ccccc3c2O)C(=O)c2cc(Br)ccc21"
label = 1

[[record]]
compound = "CC[C@H](C)[C@@H]1NC(=O)[C@H]([C@@H](C)O)NC(=O)C(Cc2ccccc2)NC(=O)[C@@H]2CCCN2C(=O)C(C(C)C)NC(=O)C(Cc2ccccc2)NC(=O)CNC(=O)[C@@H]2CCCN2C1=O (some centres undefined)"
label = 1

[[record]]
compound = "CCCCNc1nnc(-c2cc(-c3cc4ccccc4o3)nn2-c2ccccc2)o1"
label = -1


query: Hi team, can someone confirm the assay call for O=c1c2cccc3c(Nc4ccc(F)cc4)ccc(c32)c2nc3ccccc3n12 ?
result: -1

query: Each compound tested received a call. Report the one for COc1ccc(/C=C/C(=O)c2ccc(B(O)O)cc2)cc1O .
result: 1

query: Could you check what this test reported for Clc1ccc(-c2nc(-c3ccco3)cn3ccnc23)cc1 ?
result: -1

query: Returns: the outcome recorded for CC(C)CCC[C@@H](C)[C@H]1CC[C@H]2[C@@H]3CC[C@H]4C/C(=N/O)CC[C@]4(C)[C@H]3CC[C@]12C in this assay.
result: -1

====

Tested on: SK-MEL-5 melanoma
Test: NCI-60 one-dose screen, 48 h
Details: 10 µM unless noted
About 83,000 compounds went through this panel and 20% of them were active in at least one assay; those are over-represented in the sample as a whole. Activity calls are given as the source filed them. How the source made its calls: active means growth percent below 10; inactive means the rest.
Outcome (select one): T for active, F for inactive

[[record]]
compound = "CCN(C(=O)c1cc2ncccc2[nH]1)[C@H]1CCC[C@@H](NCc2cccc(F)c2)C1"
label = "F"

[[record]]
compound = "COc1cccc2cc(-c3cc4ccccc4[nH]3)c(=NC(=O)c3ccc(Cl)cc3)oc12"
label = "F"

[[record]]
compound = "COc1ccc(OC)c(NC(=O)c2cc(S(=O)(=O)N3CCc4ccccc43)ccc2OC)c1"
label = "F"

[[record]]
compound = "CC/C=C\\C/C=C\\C[C@H](O)C/C=C1/C(=O)C=C[C@H]1C/C=C\\CCC(=O)OC"
label = "F"

[[record]]
compound = "COc1ccc(OC)c(-c2ccc(-c3ccccc3N)c3[nH]c4ccccc4c23)c1"
label = "F"

[[record]]
compound = "CCSc1nnc(Nc2ccc(C(C)C)cc2)s1"
label = "F"

[[record]]
compound = "O=S(=O)(NCCNc1cc(-c2cn(-c3ccccc3)nc2-c2ccccc2)ccn1)c1ccc(F)cc1"
label = "F"

[[record]]
compound = "Cc1cnc(NC(=O)C(Cc2ccccc2)NC(=O)c2ccccc2)s1 (stereo unspecified)"
label = "F"


Lab note: next compound to report on.
query: # lookup: test call for Cc1ccc2nc(-c3c(N)n[nH]c3CCCO)[nH]c(=O)c2c1
result: F
